- System: EBC-1
- measurementNotes: relative viability (nuclei count vs DMSO), 5 days (fraction); higher = more cells survive
- assayConditions: first compound 0.8 µM
recordedMetric: relative viability
Numbers only.

Record excerpt, results attached:
compound	relative viability
C=C1C(=O)O[C@@H](CCCCCCCC)[C@@H]1C(=O)O [C-75] + COc1cc2c(Oc3ccc(NC(=O)C4(C(=O)Nc5ccc(F)cc5)CC4)cc3F)ccnc2cc1OCCCN1CCOCC1 [Foretinib] (partner 0.25 µM)	0.107
Oc1nc(-c2ccc(C(F)(F)F)cc2)nc2c1CSCC2 [XAV939] + CC(C)C[C@H](NC(=O)[C@H](Cc1ccccc1)NC(=O)c1cnccn1)B(O)O [Bortezomib] (partner 0.002 µM)	0.584
C=C1C(=O)O[C@@H](CCCCCCCC)[C@@H]1C(=O)O [C-75] + C[C@]1(O)C[C@@H](c2nc(-c3ccc4ccc(-c5ccccc5)nc4c3)c3c(N)nccn32)C1 [Linsitinib] (partner 1 µM)	0.82
Oc1nc(-c2ccc(C(F)(F)F)cc2)nc2c1CSCC2 [XAV939] + CS(=O)(=O)N1CCN(Cc2cc3nc(-c4cccc5[nH]ncc45)nc(N4CCOCC4)c3s2)CC1 [Pictilisib] (partner 1 µM)	0.329
C=C1C(=O)O[C@@H](CCCCCCCC)[C@@H]1C(=O)O [C-75] + CC1(C)CCC(c2ccc(Cl)cc2)=C(CN2CCN(c3ccc(C(=O)NS(=O)(=O)c4ccc(N[C@H](CCN5CCOCC5)CSc5ccccc5)c(S(=O)(=O)C(F)(F)F)c4)cc3)CC2)C1 [Navitoclax] (partner 0.5 µM)	0.306
Oc1nc(-c2ccc(C(F)(F)F)cc2)nc2c1CSCC2 [XAV939] + Cc1nc(NC(=O)N2CCC[C@H]2C(N)=O)sc1-c1ccnc(C(C)(C)C(F)(F)F)c1 [Alpelisib] (partner 2 µM)	0.716

Next:
q: // returns reported relative viability for input Oc1nc(-c2ccc(C(F)(F)F)cc2)nc2c1CSCC2 [XAV939] + CS(=O)(=O)CCNCc1ccc(-c2ccc3ncnc(Nc4ccc(OCc5cccc(F)c5)c(Cl)c4)c3c2)o1 [Lapatinib] (partner 2 µM)
a: 0.218

###

I'd be grateful if you could share measured relative viability for these entries.
- System: NCI-H1915
- measurementNotes: relative viability (nuclei count vs DMSO), 5 days (fraction); higher = more cells survive
- assayConditions: first compound 0.01 µM
Numbers only.

Record excerpt, results attached:
compound	relative viability
NC(=O)Nc1cc(-c2cccc(F)c2)sc1C(=O)N[C@H]1CCCNC1 [AZD7762] + CS(=O)(=O)N1CCN(Cc2cc3nc(-c4cccc5[nH]ncc45)nc(N4CCOCC4)c3s2)CC1 [Pictilisib] (partner 1 µM)	0.931
NC(=O)Nc1cc(-c2cccc(F)c2)sc1C(=O)N[C@H]1CCCNC1 [AZD7762] + Cc1cc(Nc2cc(N3CCN(C)CC3)nc(Sc3ccc(NC(=O)C4CC4)cc3)n2)n[nH]1 [Tozasertib] (partner 0.1 µM)	0.471

q: Could you tell me which relative viability is on file for NC(=O)Nc1cc(-c2cccc(F)c2)sc1C(=O)N[C@H]1CCCNC1 [AZD7762] + Nc1ncn([C@H]2C[C@H](O)[C@@H](CO)O2)c(=O)n1 [Decitabine] (partner 2 µM) ?
a: 0.276

The values you see were collected from the supplement of paper PMC10307832.
